Assay: Stability in simulated intestinal fluid assessed as parent compound remaining incubated for 4 hrs by HPLC analysis
Assay type: ADME
Details: read-out: Stability
Quantity measured: remaining at 4 h (%)
Give a bare numeral; the unit % is implied.

Please give measured remaining at 4 h of the following entry: CC(=O)OCC1=CC[C@@H]2C(C(=O)Nc3ncco3)=CO[C@@H](O[C@@H]3O[C@H](COC(C)=O)[C@@H](OC(C)=O)[C@H](OC(C)=O)[C@H]3OC(C)=O)[C@H]12 53.3

----------
Test system: Mus musculus
Test: Nephroprotective activity against adenine and potassium oxonate-induced hyperuricemia Kunming mouse model assessed as reduction in renal tubule dilation at 20 mg/kg, po administered via gavage and measured after 21 days by hematoxylin-eosin and Masson trichrome staining based optical microscopic analysis
Type: functional, organism-based
Conditions: time 21.0 day
Active and inactive are the calls of the source. The calls are words filed in the database; no cut-off is given here.

Smiles str: CC(=O)OCC1=CC[C@@H]2C(C(=O)Nc3ccc(Br)c4ccccc34)=CO[C@@H](O[C@@H]3O[C@H](COC(C)=O)[C@@H](OC(C)=O)[C@H](OC(C)=O)[C@H]3OC(C)=O)[C@H]12
Assay target: Mus musculus
Activity: Active

Smiles str: CC(=O)OCC1=CC[C@@H]2C(C(=O)Nc3ccc(C#N)cc3)=CO[C@@H](O[C@@H]3O[C@H](COC(C)=O)[C@@H](OC(C)=O)[C@H](OC(C)=O)[C@H]3OC(C)=O)[C@H]12
Assay target: Mus musculus
Activity: Active

Smiles str: CC(=O)OCC1=CC[C@@H]2C(C(=O)Nn3cccc3)=CO[C@@H](O[C@@H]3O[C@H](COC(C)=O)[C@@H](OC(C)=O)[C@H](OC(C)=O)[C@H]3OC(C)=O)[C@H]12
Assay target: Mus musculus
Activity: Active

Smiles str: CC(=O)OCC1=CC[C@@H]2C(C(=O)Nc3ncco3)=CO[C@@H](O[C@@H]3O[C@H](COC(C)=O)[C@@H](OC(C)=O)[C@H](OC(C)=O)[C@H]3OC(C)=O)[C@H]12
Assay target: Mus musculus
Activity: Active
